The origin of these recorded values is ChEMBL document CHEMBL1143648.

Assay: Clearance in rat upon intravenous administration at a dose of 2 mg/kg; n = 2
Assay type: ADME, organism-based
Set-up: dose 2 mg/kg, route intravenous
Conditions: plasma, read-out: Clp
observable: clearance (L/h/kg)

A = Cc1cc(C#N)cc(-n2nnc(-c3ccccn3)n2)c1
B = N#Cc1cccc(-n2nnc(-c3ccccn3)n2)c1
Higher clearance between A and B ? Lab log: write the label of the selected item as the result. A
(A: 3 L/h/kg, B: 1.98 L/h/kg)

* * *

pKi: −log10 of the molar value.
Measured pKi (Metabotropic glutamate receptor 5 (Rattus norvegicus))
observable: pKi

Check out these entries, answers already filled in.
> print(dat)
                           structure.smiles  observable  meas.value
1      N#Cc1cc(Cl)cc(-n2nnc(-c3ccccn3)n2)c1         pKi        7.59
2  c1ccc(-c2nnn(-c3cccc(-c4cccnc4)c3)n2)nc1         pKi        7.16

a = N#Cc1cc(N)cc(-n2nnc(-c3ccccn3)n2)c1
b = N#Cc1cc(F)cc(-n2ccc(-c3ccccn3)c2)c1
c = N#Cc1cc(-n2nnc(-c3ccccn3)n2)cc([N+](=O)[O-])c1
Order by pKi, ascending. Write the labels in rank order as requested. a, c, b

* * *

Molecular target: Metabotropic glutamate receptor 5 (Rattus norvegicus, UniProt P31424)
Sequence (P31424 whole entry): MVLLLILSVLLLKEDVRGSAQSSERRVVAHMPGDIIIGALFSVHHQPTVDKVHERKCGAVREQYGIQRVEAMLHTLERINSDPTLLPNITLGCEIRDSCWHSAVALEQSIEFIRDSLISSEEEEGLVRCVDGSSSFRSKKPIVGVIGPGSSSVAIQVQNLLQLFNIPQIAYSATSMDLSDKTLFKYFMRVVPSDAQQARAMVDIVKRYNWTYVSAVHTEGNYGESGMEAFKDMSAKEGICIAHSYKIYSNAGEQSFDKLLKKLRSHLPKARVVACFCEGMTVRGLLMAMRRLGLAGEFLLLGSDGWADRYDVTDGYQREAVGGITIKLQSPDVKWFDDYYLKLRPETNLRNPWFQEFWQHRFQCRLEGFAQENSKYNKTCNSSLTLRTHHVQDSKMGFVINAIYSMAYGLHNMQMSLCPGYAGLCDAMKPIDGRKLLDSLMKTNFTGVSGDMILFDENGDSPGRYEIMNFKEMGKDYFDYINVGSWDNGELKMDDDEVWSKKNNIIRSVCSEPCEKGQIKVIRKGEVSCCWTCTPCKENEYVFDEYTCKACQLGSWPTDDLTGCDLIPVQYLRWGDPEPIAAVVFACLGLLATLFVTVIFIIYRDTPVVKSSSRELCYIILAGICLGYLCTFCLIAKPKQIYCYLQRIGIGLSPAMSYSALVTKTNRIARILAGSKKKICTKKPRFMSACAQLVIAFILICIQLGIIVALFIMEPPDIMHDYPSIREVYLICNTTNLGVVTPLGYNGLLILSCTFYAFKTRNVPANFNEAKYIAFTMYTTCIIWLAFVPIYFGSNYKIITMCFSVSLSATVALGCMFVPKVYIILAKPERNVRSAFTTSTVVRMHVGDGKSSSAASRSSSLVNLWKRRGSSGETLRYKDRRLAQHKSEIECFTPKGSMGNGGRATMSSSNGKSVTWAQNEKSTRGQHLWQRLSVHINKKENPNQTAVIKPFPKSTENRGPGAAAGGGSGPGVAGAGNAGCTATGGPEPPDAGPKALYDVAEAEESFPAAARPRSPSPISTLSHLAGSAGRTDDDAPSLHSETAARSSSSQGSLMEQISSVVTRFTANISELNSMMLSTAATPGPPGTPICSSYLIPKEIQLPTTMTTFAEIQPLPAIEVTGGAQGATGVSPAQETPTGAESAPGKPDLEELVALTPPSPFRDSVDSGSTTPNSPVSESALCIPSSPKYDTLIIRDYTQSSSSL
Assay: In vitro functional activity measured by changes in cytosolic [Ca2+] concentrations against rat metabotropic glutamate receptor 5
pIC50: −log10 of the molar value.
observable: pIC50

> print(dat)
                     structure.smiles  observable  meas.value
1  N#Cc1cc(-n2nnc(-c3ccccn3)n2)ccc1Cl       pIC50        6.14

P = N#Cc1cc(OCC2CC2)cc(-n2nnc(-c3ccccn3)n2)c1
Q = N#Cc1ccc(Cl)c(-n2nnc(-c3ccccn3)n2)c1
// compare: P vs Q , metric pIC50, want the smaller Your answer should be the label attached to the chosen record. P

* * *

Experiment: Maximum concentration in rat upon oral administration at a dose of 10 mg/kg; n = 3
Format: ADME, organism-based
Design: dose 10 mg/kg, route oral
Conditions: in vivo
observable: Cmax (nM)
Reply with just the number (in nM).

Memo: `Cc1cc(C#N)cc(-n2nnc(-c3ccccn3)n2)c1` , reported Cmax: 800

* * *

Experiment: Half life in rat upon intravenous administration at a dose of 2 mg/kg; n = 2
Assay type: ADME, organism-based
Set-up: dose 2 mg/kg, route intravenous
Conditions: in vivo
observable: half-life (h)

> print(dat)
                   structure.smiles  meas.value
1  N#Cc1cccc(-n2nnc(-c3ccccn3)n2)c1         6.9

A = N#Cc1cc(F)cc(-n2nnc(-c3ccccn3)n2)c1
B = Cc1cc(C#N)cc(-n2nnc(-c3ccccn3)n2)c1
Please state the entry with greater half-life among A and B . Use the label to indicate which entry you chose. A

* * *

Experiment: Volume of distribution in rat upon intravenous administration at a dose of 2 mg/kg; n = 2
Format: ADME, organism-based
Design: dose 2 mg/kg, route intravenous
Conditions: in vivo
observable: Vd (L/kg)

1 = Cc1cc(C#N)cc(-n2nnc(-c3ccccn3)n2)c1
2 = N#Cc1cccc(-n2nnc(-c3ccccn3)n2)c1
Which has the higher Vd, 1 or 2 ? Pick one and reply with its label. 2
